System: SK-MEL
Test: Cytotoxicity against human SK-MEL cells after 72 hrs by MTT assay
Type: functional
observationType: GI50 (µM)
Report only the number, with the unit µM understood.

Examples from the recorded data:
> print(dat)
                                   compound  unitsofmeasure  assayvalue
1  COc1cc(C2C3=C(Nc4[nH]c(=O)[nH]c(=O)c42)c2ccccc2C3=O)cc(Br)c1OC (stereo not given)              µM        0.48
2  COc1ccc(C2C3=C(Nc4[nH]c(=O)[nH]c(=O)c42)c2ccccc2C3=O)cc1 (stereo not given)              µM         4.8
3  COc1ccc(-c2c3c(nc4[nH]c(=O)[nH]c(=O)c24)-c2ccccc2C3=O)cc1              µM         4.7
4  Cc1ccc(-c2c3c(nc4[nH]c(=O)[nH]c(=O)c24)-c2ccccc2C3=O)cc1C              µM        0.45

Consider now this further compound.
Quick check: GI50 of COc1ccc(C2C3=C(Nc4[nH]c(=O)[nH]c(=O)c42)c2ccccc2C3=O)c(OC)c1OC (stereo not given) ? 0.4

---

// GI50 lookup, one value per entry
System: SK-MEL
Experiment: Cytotoxicity against human SK-MEL cells after 72 hrs by MTT assay
Format: functional
Report only the number, with the unit nM understood.

> print(dat)
                                   compound  assayvalue
1  CSc1ccc(-c2c3c(nc4[nH]c(=O)[nH]c(=O)c24)-c2ccccc2C3=O)cc1         230

Quick check: GI50 of O=C1C2=C(Nc3[nH]c(=O)[nH]c(=O)c3C2c2ccc(F)cc2)c2ccccc21 (stereo not given) ? 10000

Repeat with O=C1c2ccccc2-c2nc3[nH]c(=O)[nH]c(=O)c3c(-c3ccc(Cl)c(Cl)c3)c21 80

Repeat with COc1cc(-c2c3c(nc4[nH]c(=O)[nH]c(=O)c24)-c2ccccc2C3=O)cc(Br)c1OC 470

Repeat with O=C1c2ccccc2-c2nc3[nH]c(=O)[nH]c(=O)c3cc21 10000

Repeat with CC[C@@]1(O)C(=O)OCc2c1cc1n(c2=O)Cc2cc3ccccc3nc2-1 47

Repeat with Cc1ccc(C2C3=C(Nc4[nH]c(=O)[nH]c(=O)c42)c2ccccc2C3=O)cc1C (stereo not given) 960

Repeat with CSc1ccc(C2C3=C(Nc4[nH]c(=O)[nH]c(=O)c42)c2ccccc2C3=O)cc1 (stereo not given) 1800

Repeat with COc1ccc(C2C3=C(Nc4[nH]c(=O)[nH]c(=O)c42)c2ccccc2C3=O)cc1OC (stereo not given) 860

---

Test system: SK-MEL
Test: Cytotoxicity against human SK-MEL cells after 72 hrs by MTT assay
Type: functional
observationType: GI50 (nM)
Report only the number, with the unit nM understood.

Examples from the recorded data:
> print(dat)
                                   compound  assayvalue
1  O=C1C2=C(Nc3[nH]c(=O)[nH]c(=O)c3C2c2ccc(Cl)cc2Cl)c2ccccc21 (stereo unspecified)        3900
2  O=C1C2=C(Nc3[nH]c(=O)[nH]c(=O)c3C2c2ccc(Cl)c(Cl)c2)c2ccccc21 (stereo unspecified)         500
3  COc1ccc(-c2c3c(nc4[nH]c(=O)[nH]c(=O)c24)-c2ccccc2C3=O)c(OC)c1OC         430
4  O=C1c2ccccc2-c2nc3[nH]c(=O)[nH]c(=O)c3c(-c3ccc(Cl)cc3Cl)c21        3500
5  COc1ccc(-c2c3c(nc4[nH]c(=O)[nH]c(=O)c24)-c2ccccc2C3=O)cc1OC         470

Consider now this further compound.
Quick check: GI50 of O=C1c2ccccc2-c2nc3[nH]c(=O)[nH]c(=O)c3c(-c3ccc(F)cc3)c21 ? 10000
